- TESTED_TARGET: 15-LOX (Glycine max)
- Sequence (P08170 whole entry): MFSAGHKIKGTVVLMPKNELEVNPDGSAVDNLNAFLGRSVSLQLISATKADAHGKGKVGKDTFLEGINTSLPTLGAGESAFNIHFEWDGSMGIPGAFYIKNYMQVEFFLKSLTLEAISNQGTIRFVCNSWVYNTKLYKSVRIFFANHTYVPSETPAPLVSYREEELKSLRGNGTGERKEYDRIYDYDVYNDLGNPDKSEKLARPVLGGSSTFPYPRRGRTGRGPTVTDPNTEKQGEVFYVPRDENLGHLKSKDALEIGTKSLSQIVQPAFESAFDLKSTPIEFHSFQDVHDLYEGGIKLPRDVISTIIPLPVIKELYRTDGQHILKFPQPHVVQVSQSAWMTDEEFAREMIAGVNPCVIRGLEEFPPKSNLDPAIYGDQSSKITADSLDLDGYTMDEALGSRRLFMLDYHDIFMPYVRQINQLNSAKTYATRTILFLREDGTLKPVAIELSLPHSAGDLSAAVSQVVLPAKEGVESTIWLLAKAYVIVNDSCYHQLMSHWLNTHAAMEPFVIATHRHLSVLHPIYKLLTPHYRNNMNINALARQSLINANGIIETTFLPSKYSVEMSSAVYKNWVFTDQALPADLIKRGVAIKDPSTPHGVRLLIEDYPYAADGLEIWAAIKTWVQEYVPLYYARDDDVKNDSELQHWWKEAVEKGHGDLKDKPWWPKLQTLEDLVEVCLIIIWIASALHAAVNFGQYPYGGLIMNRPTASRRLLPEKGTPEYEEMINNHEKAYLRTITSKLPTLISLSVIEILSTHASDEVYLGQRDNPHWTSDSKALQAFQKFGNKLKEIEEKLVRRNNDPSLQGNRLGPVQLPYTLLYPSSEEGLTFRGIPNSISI
QUANTITY_MEASURED: pIC50
The read-out pIC50 is expressed as -log10 of concentration in moles per litre.

State the recorded pIC50 for this entry: CN(C)c1ccc(Cc2cc(-c3ccc(Cl)c(Cl)c3)n[nH]c2=O)cc1
5.33

Entry O=C1OC(c2ccc(Cl)c(Cl)c2)=CC1=Cc1cccc([N+](=O)[O-])c1 please
5.36

Entry O=C(CC(=Cc1ccccc1[N+](=O)[O-])c1n[nH]c(=S)o1)c1ccc(Cl)c(Cl)c1 please
5.68

Entry CN(C)c1ccc(C=C2C=C(c3ccc(Cl)c(Cl)c3)N(c3ccccc3)NC2=O)cc1 please
5.53

----------
Please provide measured Selectivity indexes (SI) for the entries that follow.
- TESTED_TARGET: COX-2 (Homo sapiens, UniProt P35354)
- Sequence (P35354 18-604): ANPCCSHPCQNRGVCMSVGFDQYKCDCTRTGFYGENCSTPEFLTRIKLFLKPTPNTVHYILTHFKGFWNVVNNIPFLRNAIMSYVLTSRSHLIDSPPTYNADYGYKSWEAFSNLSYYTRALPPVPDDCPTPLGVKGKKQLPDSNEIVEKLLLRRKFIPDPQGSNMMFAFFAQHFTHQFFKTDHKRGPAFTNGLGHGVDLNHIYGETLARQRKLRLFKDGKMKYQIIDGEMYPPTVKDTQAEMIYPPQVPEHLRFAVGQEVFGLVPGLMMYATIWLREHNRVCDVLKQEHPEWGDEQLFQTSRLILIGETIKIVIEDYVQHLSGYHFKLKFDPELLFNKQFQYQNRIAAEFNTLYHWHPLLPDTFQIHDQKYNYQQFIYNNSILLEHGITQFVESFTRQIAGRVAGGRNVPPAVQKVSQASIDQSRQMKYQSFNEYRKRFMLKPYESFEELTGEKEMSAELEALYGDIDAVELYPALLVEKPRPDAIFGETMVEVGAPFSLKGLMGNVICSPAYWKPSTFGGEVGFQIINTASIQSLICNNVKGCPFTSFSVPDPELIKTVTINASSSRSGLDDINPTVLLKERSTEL
- METHOD_SUMMARY: Cyclooxygenase COX-2 inhibition assay (Cayman COX inhibitor screening kit, EIA)
- CONDITION_NOTES: SI = IC50 COX-1/COX-2 ratios
Field format: numeric only.

State the recorded Selectivity indexes (SI) for this entry: O=C(NCc1ccccc1)C(=Cc1ccccc1[N+](=O)[O-])CC(=O)c1ccc(Cl)c(Cl)c1
221.40

Entry O=C1NN(c2ccccc2)C(c2ccc(Cl)c(Cl)c2)=CC1=Cc1cccc([N+](=O)[O-])c1 please
325.00

Entry CN(C)c1ccc(C=C2C=C(c3ccc(Cl)c(Cl)c3)OC2=O)cc1 please
9.36

Entry O=c1[nH]nc(-c2ccc(Cl)c(Cl)c2)cc1Cc1cccc([N+](=O)[O-])c1 please
26.68

Entry CN(C)c1ccc(C=C(CC(=O)c2ccc(Cl)c(Cl)c2)C(=O)NCc2ccccc2)cc1 please
238.00

Entry O=C(NCc1ccccc1)C(=Cc1cccc([N+](=O)[O-])c1)CC(=O)c1ccc(Cl)c(Cl)c1 please
222.17

Entry CN(C)c1ccc(C=C2C=C(c3ccc(Cl)c(Cl)c3)N(c3ccccc3)NC2=O)cc1 please
130.33

Entry CN(C)c1ccc(C=C(CC(=O)c2ccc(Cl)c(Cl)c2)C(=O)NN)cc1 please
88.30

Entry CN(C)c1ccc(Cc2cc(-c3ccc(Cl)c(Cl)c3)n[nH]c2=O)cc1 please
69.42

Entry O=C1NN(C(=O)c2ccccc2)C(c2ccc(Cl)c(Cl)c2)=CC1=Cc1cccc([N+](=O)[O-])c1 please
316.75

Entry O=C1OC(c2ccc(Cl)c(Cl)c2)=CC1=Cc1cccc([N+](=O)[O-])c1 please
24.89

Entry CN(C)c1ccc(C=C2C=C(c3ccc(Cl)c(Cl)c3)NC2=O)cc1 please
17.44

Entry O=C1NC(c2ccc(Cl)c(Cl)c2)=CC1=Cc1cccc([N+](=O)[O-])c1 please
17.62

Entry NNC(=O)C(=Cc1ccccc1[N+](=O)[O-])CC(=O)c1ccc(Cl)c(Cl)c1 please
107.44

Entry O=C1NN(c2ccccc2)C(c2ccc(Cl)c(Cl)c2)=CC1=Cc1ccccc1[N+](=O)[O-] please
212.17

Entry CN(C)c1ccc(C=C(CC(=O)c2ccc(Cl)c(Cl)c2)c2n[nH]c(=S)o2)cc1 please
40.59

Entry O=c1[nH]nc(-c2ccc(Cl)c(Cl)c2)cc1Cc1ccccc1[N+](=O)[O-] please
41.35

Entry O=C1OC(c2ccc(Cl)c(Cl)c2)=CC1=Cc1ccccc1[N+](=O)[O-] please
12.94

Entry CN(C)c1ccc(C=C2C=C(c3ccc(Cl)c(Cl)c3)N(C(=O)c3ccccc3)NC2=O)cc1 please
326.75

Entry NNC(=O)C(=Cc1cccc([N+](=O)[O-])c1)CC(=O)c1ccc(Cl)c(Cl)c1 please
125.88

Entry O=C1NC(c2ccc(Cl)c(Cl)c2)=CC1=Cc1ccccc1[N+](=O)[O-] please
44.05

Entry O=C(CC(=Cc1ccccc1[N+](=O)[O-])c1n[nH]c(=S)o1)c1ccc(Cl)c(Cl)c1 please
33.68

Entry O=C1NN(C(=O)c2ccccc2)C(c2ccc(Cl)c(Cl)c2)=CC1=Cc1ccccc1[N+](=O)[O-] please
153.86

Just for reference, paper PMC8118430 is where these values come from.
